- Assay name: Single oral dose pharmacokinetics of dotinurad in plasma, phase 1 study
- Format: in vivo, human (healthy Chinese adults)
- Conditions used: human, plasma, po, 10 mg

{"columns": ["Smiles notation", "AUC(0-inf), ng·h/mL"],
 "data": [
  ["O=C(c1cc(Cl)c(O)c(Cl)c1)N1CS(=O)(=O)c2ccccc21", 13600]
]}

====

- Assay name: Multiple once-daily oral dose pharmacokinetics of dotinurad in plasma
- Type: in vivo, human (healthy Chinese adults)
- Conditions used: human, plasma, oral, 4 mg
Quantity name: Vd/F (L)

{"columns": ["Smiles notation", "Quantity name", "Numeric value"],
 "data": [
  ["O=C(c1cc(Cl)c(O)c(Cl)c1)N1CS(=O)(=O)c2ccccc21", "Vd/F", 13.2]
]}
